biological target: Calmodulin-1 (Homo sapiens) (UniProt P0DP23); assay: calcium-bound CALM1 binders on microarrays, profiling panel, artefact control for SMM control-protein annotation, biochemical, small-molecule microarray, Cy5-labelled CALM1, plus calcium (AID 1112); conditions: Cy5-CALM1 binding fluorescence, higher = more signal;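 also: score merges spot fluorescence with signal to noise from triplicate slides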
Field: composite z-score. Provide a value for each of the molecules that follow.
Answers are plain numbers.

Examples with their reported composite z-score follow.
MOLECULE: CCOC(=O)C[C@H]1[C@H](OC(=O)c2ccccc2-c2ccccc2)[C@@H](NC(=O)c2ccc(-c3ccccc3)cc2)c2cc(OCCCO)ccc2N1C(=O)Cc1ccc(OC)cc1
composite z-score: -0.499

MOLECULE: CCN1C(C)=C(C(=O)OC)[C@@H](c2ccccc2)N2C(=O)[C@@]3(C(=O)OC)O[C@@]12[C@@H]1C(=O)CCC[C@@H]13
composite z-score: -1.08

MOLECULE: COC(=O)[C@@]1(Cc2ccccc2)[C@H]2c3cc(C(=O)N4CCCC4)n(CCN4CNCC4=O)c3C[C@H]2CN1C(=O)c1ccccc1
composite z-score: 0.265

MOLECULE: CCC#CCN(Cc1ccccc1Br)[C@H](/C=C/c1ccccc1)[C@@H](O)Cc1ccccc1
composite z-score: 0.402

MOLECULE: C=CC[C@]1(C(=O)NCC(O)CO)N=C(c2ccc(OCCCO)cc2)O[C@H]1c1ccccc1 (stereo not given in full)
composite z-score: 1.12

Please report composite z-score for every entry that follows.
1. CO[C@H]1O[C@H](CO)[C@@H](OC(=O)Nc2ccc3c(c2)OCO3)[C@H](OC(=O)Nc2ccccc2)[C@@H]1OC(=O)Nc1ccccc1
2. Cc1ccc(N2C(=O)c3ccccc3[C@](C)(C(=O)NCC(C)C)[C@@H]2c2ccc(CO)cc2)nc1
3. CC(C)NC(=O)[C@@]1(Cc2ccccc2I)c2ccccc2C(=O)N(C2CCCCC2)[C@H]1c1ccc(CO)cc1
4. COc1ccc([C@H]2C[C@H]3C(Br)=C[C@]2(OC)C(=O)[C@]32CO2)cc1

Ans.
1: -0.677; 2: -1.07; 3: 0.458; 4: -0.668

---

test: small-molecule microarray binders of probe aNog, primary screen, biochemical, biotinylated probe, 635/667 nm fluorescence (AID 1115); conditions: higher = more signal;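 also: probe is biotinylated aNog protein used at 0.15 µg/mL for 1 h at 4 C; z-score combines 667 nm fluorescence of each spot with its signal to noise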
We use 0.05 as the dividing line for composite z-score: on or above the line is Satisfied, below is Not satisfied.

Solved cases (2 shown):
COMPOUND: C[C@H]1NC(=O)[C@@H](C)NC(=O)[C@@]23C(=O)N[C@@H](Cc4ccccc4)C2[C@H](C)[C@@]2(C)O[C@H]2C3/C=C/C/C=C\CNC1=O (some centres not stated)
CATEGORY: Not satisfied

COMPOUND: Cc1ccc(N2C(=O)c3ccccc3[C@](C)(C(=O)NCC(C)C)[C@@H]2c2ccc(CO)cc2)nc1
CATEGORY: Not satisfied

Qu. For this compound, is measured composite z-score 0.05 or higher? `[N-]=[N+]=NCc1ccccc1[C@H]1OC(c2ccc(OCCCO)cc2)=N[C@@]1(Cc1ccccc1N=[N+]=[N-])C(=O)NCc1ccccc1`
Ans. Satisfied

Qu. For this compound, is measured composite z-score 0.05 or higher? `COCCOC(=O)N1C(=O)[C@@]2(c3cc(C#CCCO)ccc31)[C@H](c1ccc(O)cc1)N1[C@H](c3ccccc3)[C@H](c3ccccc3)OC(=O)[C@H]1[C@@H]2C(=O)Nc1nc2ccccc2s1`
Ans. Not satisfied

Hey, just so you know, these numbers are from PubChem BioAssay.
